Just for reference, patent US5190741A is where these values come from.

- measurement_notes: Tissue distribution in Swiss nu/nu SSCUP mice bearing Beu
- Assay type: in vivo, human
- assay_conditions: mouse, stomach, iv, 3 umol/animal; 2 h; read-out: stomach % ID/g
- Description: The study of the tissue distribution of the ^125 I labelled compounds was performed in mice bearing grafted melanomas (cf. autoradiograms above). […] The animals are sacrificed at different time intervals of 1 to 24 hours after the injection. The blood is collected and the principal organs are excised. Aliquots are weighed and the radioactivity of the samples is measured in a […] 1191 counter (analytic tracer). The counting yield for iodine 125 is 60%. […]
measured_attribute: tissue uptake at 2 h
Put your answer as a value accompanied by its unit after it.

Determine from records and report tissue uptake at 2 h for CCN(CC)CCNC(=O)c1ccc(I)cc1 [Derivative A, N-(2-diethylaminoethyl) 4-iodo benzamide] 1.51 %ID/g

---

- measurement_notes: Tissue distribution in Swiss nu/nu SSCUP mice bearing Dau
- Format: in vivo, human
- assay_conditions: mouse, pancreas, iv, 3 umol/animal; 2 h; read-out: pancreas % ID/g
Measured tissue uptake at 2 h, listed per entry.

Determine from records and report tissue uptake at 2 h for CCNCCNC(=O)c1ccc(I)cc1 [Derivative B, N-(2-ethylaminoethyl) 4-iodo benzamide] 2.13 %ID/g

Now take the following compound into account.
Determine from records and report tissue uptake at 2 h for CCN(CC)CCNC(=O)c1ccc(I)cc1 [Derivative A, N-(2-diethylaminoethyl) 4-iodo benzamide] 2.29 %ID/g

---

- measurement_notes: Tissue distribution in Swiss nu/nu SSCUP mice bearing Dau
- Type: in vivo, human
- assay_conditions: mouse, pancreas, iv, 3 umol/animal; 24 h; read-out: pancreas % ID/g
measured_attribute: tissue uptake at 24 h (%ID/g)
Give a bare numeral; the unit %ID/g is implied.

Determine from records and report tissue uptake at 24 h for CCN(CC)CCNC(=O)c1ccc(I)cc1 [Derivative A, N-(2-diethylaminoethyl) 4-iodo benzamide] 0.03

***
Determine from records and report tissue uptake at 24 h for CCNCCNC(=O)c1ccc(I)cc1 [Derivative B, N-(2-ethylaminoethyl) 4-iodo benzamide] 0.01

---

- measurement_notes: Tissue distribution in C57 BL6 mice bearing B16
- Type: in vivo, mouse
- assay_conditions: mouse, liver, iv, 3 umol/animal; 12 h; read-out: liver % ID/g
measured_attribute: tissue uptake at 12 h (%ID/g)
Give a bare numeral; the unit %ID/g is implied.

Determine from records and report tissue uptake at 12 h for CCN(CC)CCNC(=O)c1ccc(I)cc1 [Derivative A, N-(2-diethylaminoethyl) 4-iodo benzamide] 0.25

---

Measured tissue uptake at 12 h, listed per entry.
- measurement_notes: Tissue distribution in Swiss nu/nu SSCUP mice bearing Dau
- Assay type: in vivo, human
- assay_conditions: mouse, lungs, iv, 3 umol/animal; 12 h; read-out: lungs % ID/g
- Protocol: The study of the tissue distribution of the ^125 I labelled compounds was performed in mice bearing grafted melanomas (cf. autoradiograms above). […] The animals are sacrificed at different time intervals of 1 to 24 hours after the injection. The blood is collected and the principal organs are excised. Aliquots are weighed and the radioactivity of the samples is measured in a […] 1191 counter (analytic tracer). The counting yield for iodine 125 is 60%. […]
Give a bare numeral; the unit %ID/g is implied.

Determine from records and report tissue uptake at 12 h for CCNCCNC(=O)c1ccc(I)cc1 [Derivative B, N-(2-ethylaminoethyl) 4-iodo benzamide] 0.04

***
Determine from records and report tissue uptake at 12 h for CCN(CC)CCNC(=O)c1ccc(I)cc1 [Derivative A, N-(2-diethylaminoethyl) 4-iodo benzamide] 0.11

---

- measurement_notes: Tissue distribution in C57 BL6 mice bearing B16
- Assay type: in vivo, mouse
- assay_conditions: mouse, lung, iv, 3 umol/animal, as from the 6th hour, mice bearing melanic melanomas; read-out: pulmonary binding
measured_attribute: tissue uptake at 6 h

Determine from records and report tissue uptake at 6 h for CCN(CC)CCNC(=O)c1ccc(I)cc1 [Derivative A, N-(2-diethylaminoethyl) 4-iodo benzamide] < 1 %ID/g

---

- measurement_notes: Tissue distribution in Swiss nu/nu SSCUP mice bearing Dau
- Type: in vivo, human
- assay_conditions: mouse, kidney, iv, 3 umol/animal, 6 h; read-out: kidney % ID/g
measured_attribute: tissue uptake at 6 h (%ID/g)
Give a bare numeral; the unit %ID/g is implied.

Determine from records and report tissue uptake at 6 h for CCNCCNC(=O)c1ccc(I)cc1 [Derivative B, N-(2-ethylaminoethyl) 4-iodo benzamide] 1.07

Now take the following compound into account.
Determine from records and report tissue uptake at 6 h for CCN(CC)CCNC(=O)c1ccc(I)cc1 [Derivative A, N-(2-diethylaminoethyl) 4-iodo benzamide] 0.78

---

- measurement_notes: Tissue distribution in C57 BL6 mice bearing B16
- Format: in vivo, mouse
- assay_conditions: mouse, blood, iv, 3 umol/animal; 8 h; read-out: blood % ID/g
- Description: The study of the tissue distribution of the ^125 I labelled compounds was performed in mice bearing grafted melanomas (cf. autoradiograms above). […] The animals are sacrificed at different time intervals of 1 to 24 hours after the injection. The blood is collected and the principal organs are excised. Aliquots are weighed and the radioactivity of the samples is measured in a […] 1191 counter (analytic tracer). The counting yield for iodine 125 is 60%. […]
measured_attribute: tissue uptake at 8 h

Determine from records and report tissue uptake at 8 h for CCN(CC)CCNC(=O)c1ccc(I)cc1 [Derivative A, N-(2-diethylaminoethyl) 4-iodo benzamide] 0.34 %ID/g

---

- measurement_notes: Tissue distribution in C57 BL6 mice bearing B16
- Type: in vivo, mouse
- assay_conditions: mouse, muscle, iv, 3 umol/animal, 24 h; read-out: muscle % ID/g
Measured tissue uptake at 24 h, listed per entry.
Give a bare numeral; the unit %ID/g is implied.

Determine from records and report tissue uptake at 24 h for CCNCCNC(=O)c1ccc(I)cc1 [Derivative B, N-(2-ethylaminoethyl) 4-iodo benzamide] 0.02

***
Determine from records and report tissue uptake at 24 h for CCN(CC)CCNC(=O)c1ccc(I)cc1 [Derivative A, N-(2-diethylaminoethyl) 4-iodo benzamide] 0.009

---

- measurement_notes: Tissue distribution in C57 BL6 mice bearing B16
- Assay type: in vivo, mouse
- assay_conditions: mouse, submaxillary glands, iv, 3 umol/animal; 6 h; read-out: submaxillary glands % ID/g
measured_attribute: tissue uptake at 6 h (%ID/g)
Give a bare numeral; the unit %ID/g is implied.

Determine from records and report tissue uptake at 6 h for CCN(CC)CCNC(=O)c1ccc(I)cc1 [Derivative A, N-(2-diethylaminoethyl) 4-iodo benzamide] 1.12

---

- measurement_notes: Tissue distribution in Swiss nu/nu SSCUP mice bearing Beu
- Type: in vivo, human
- assay_conditions: mouse, stomach, iv, 3 umol/animal; 1 h; read-out: stomach % ID/g
measured_attribute: tissue uptake at 1 h
Put your answer as a value accompanied by its unit after it.

Determine from records and report tissue uptake at 1 h for CCN(CC)CCNC(=O)c1ccc(I)cc1 [Derivative A, N-(2-diethylaminoethyl) 4-iodo benzamide] 2.49 %ID/g

---

Measured tissue uptake at 24 h, listed per entry.
- measurement_notes: Tissue distribution in C57 BL6 mice bearing B16
- Assay type: in vivo, mouse
- assay_conditions: mouse, liver, iv, 3 umol/animal, 24 h; read-out: liver % ID/g
Give a bare numeral; the unit %ID/g is implied.

Determine from records and report tissue uptake at 24 h for CCN(CC)CCNC(=O)c1ccc(I)cc1 [Derivative A, N-(2-diethylaminoethyl) 4-iodo benzamide] 0.16

Now take the following compound into account.
Determine from records and report tissue uptake at 24 h for CCNCCNC(=O)c1ccc(I)cc1 [Derivative B, N-(2-ethylaminoethyl) 4-iodo benzamide] 0.22

---

- measurement_notes: Tissue distribution in C57 BL6 mice bearing B16
- Assay type: in vivo, mouse
- assay_conditions: mouse, liver, iv, 3 umol/animal, 2 h; read-out: liver % ID/g
measured_attribute: tissue uptake at 2 h
Put your answer as a value accompanied by its unit after it.

Determine from records and report tissue uptake at 2 h for CCNCCNC(=O)c1ccc(I)cc1 [Derivative B, N-(2-ethylaminoethyl) 4-iodo benzamide] 3.72 %ID/g

Now take the following compound into account.
Determine from records and report tissue uptake at 2 h for CCN(CC)CCNC(=O)c1ccc(I)cc1 [Derivative A, N-(2-diethylaminoethyl) 4-iodo benzamide] 4.02 %ID/g

---

- measurement_notes: Tissue distribution in Swiss nu/nu SSCUP mice bearing Beu
- Assay type: in vivo, human
- assay_conditions: mouse, liver, iv, 3 umol/animal, 24 h; read-out: liver % ID/g
measured_attribute: tissue uptake at 24 h (%ID/g)
Give a bare numeral; the unit %ID/g is implied.

Determine from records and report tissue uptake at 24 h for CCN(CC)CCNC(=O)c1ccc(I)cc1 [Derivative A, N-(2-diethylaminoethyl) 4-iodo benzamide] 0.13

---

Measured tissue uptake at 6 h, listed per entry.
- measurement_notes: Tissue distribution in C57 BL6 mice bearing B16
- Format: in vivo, mouse
- assay_conditions: mouse, eye, iv, 3 umol/animal, 6 h; read-out: eye % ID/g
Give a bare numeral; the unit %ID/g is implied.

Determine from records and report tissue uptake at 6 h for CCNCCNC(=O)c1ccc(I)cc1 [Derivative B, N-(2-ethylaminoethyl) 4-iodo benzamide] 0.38

Now take the following molecule into account.
Determine from records and report tissue uptake at 6 h for CCN(CC)CCNC(=O)c1ccc(I)cc1 [Derivative A, N-(2-diethylaminoethyl) 4-iodo benzamide] 12.1
